Test system: COLO 205 colon
Experimental protocol: NCI-60 one-dose screen, 48 h
Condition details: 10 µM unless noted
About 83,000 compounds went through this panel and 20% of them were active in at least one assay; those are over-represented in the sample as a whole. Activity calls are given as the source filed them. Rule for the calls: active = growth percent below 10; inactive = the rest.
Mark one answer only. Choices: true (1) for active, false (0) for inactive

input: Short answer needed: outcome of this test for CC1=C/C(=N\N=C2/C=C(C)CC(C)(C)C2)CC(C)(C)C1 ?
output: false (0)

input: Short answer needed: outcome of this test for COc1ccc2[nH]c3nc4cnccc4cc3c2c1 ?
output: false (0)

input: Short answer needed: outcome of this test for O=C(CCCC(=O)Nc1ccc(-n2nnc3cc(Cl)c(Cl)cc32)cc1)Nc1ccc(-n2nnc3cc(Cl)c(Cl)cc32)cc1 ?
output: false (0)

input: Short answer needed: outcome of this test for O=C1C(Cl)=C(Nc2ccc3c(c2NC2=C(Cl)C(=O)c4ccccc4C2=O)C(=O)c2ccccc2C3=O)C(=O)c2ccccc21 ?
output: false (0)

input: Short answer needed: outcome of this test for O=C(C[n+]1cccc2cc(Cl)ccc21)c1ccc2c(c1)CCCC2 ?
output: true (1)

input: Short answer needed: outcome of this test for C=C(C)[C@@H]1CC[C@]2(C(=O)OCCCC[P+](c3ccccc3)(c3ccccc3)c3ccccc3)CC[C@]3(C)[C@H](CC[C@@H]4[C@@]5(C)CC[C@H](OC(=O)C(Cl)Cl)C(C)(C)[C@@H]5CC[C@]43C)[C@@H]12 ?
output: true (1)

input: Short answer needed: outcome of this test for O=C(CN1N=C(c2ccc(F)cc2)CCC1=O)Nc1nc2ccccc2s1 ?
output: false (0)

input: Short answer needed: outcome of this test for CCOc1ccc(C2N(c3cc(OC)c(OC)c(OC)c3)C(=O)C2(F)F)cc1 (configuration not stated) ?
output: false (0)

input: Short answer needed: outcome of this test for Cc1cnc(-c2ccc(-c3ccc(NC(=O)Nc4c(F)cc(F)cc4F)cc3F)c3c2C(=O)NC3)[nH]1 ?
output: false (0)

input: Short answer needed: outcome of this test for COC1=CC=CC2(OC)C3(O)CCCc4cccc(c43)N3C(=O)COC132 (configuration not stated) ?
output: false (0)

input: Short answer needed: outcome of this test for COc1cc(NC(=O)COc2cc(C)nc3ccc(OC)cc23)cc(OC)c1 ?
output: false (0)

input: Short answer needed: outcome of this test for CO[C@@]12C=C[C@@]34CCC(=O)N3c3ccccc3[C@@H](O1)C4C2 ?
output: false (0)

###

System: UACC-257 melanoma
Experimental protocol: NCI-60 one-dose screen, 48 h
Condition details: 10 µM unless noted
The panel holds about 83,000 compounds, 20% with a hit somewhere; the sample as a whole holds those more often. The source made the active and inactive calls. Rule for the calls: active = growth percent below 10; inactive = the rest.
Mark one answer only. Choices: Yes for active, No for inactive

input: Short answer needed: outcome of this test for CC1=C/C(=N\N=C2/C=C(C)CC(C)(C)C2)CC(C)(C)C1 ?
output: No

input: Short answer needed: outcome of this test for COc1cc(C2=NN(C(C)=O)C(c3cccc(Nc4ccnc5cc(C(F)(F)F)ccc45)c3)C2)cc(OC)c1OC (stereo not given) ?
output: No

input: Short answer needed: outcome of this test for O=C(NC[C@H](O)CN1CCc2ccccc2C1)c1cc(NC2COC2)ncn1 ?
output: No

input: Short answer needed: outcome of this test for COc1cc(NC(=O)Nc2cnc(Nc3ccc(N4CCOCC4)cc3)nc2Oc2ccc(C(F)(F)F)cc2)cc(OC)c1 ?
output: No

input: Short answer needed: outcome of this test for c1ccc(-c2n(Cc3ccc4ccccc4n3)cc[n+]2Cc2ccc3ccccc3c2)cc1 ?
output: Yes

input: Short answer needed: outcome of this test for COc1ccc2c(c1)Oc1nc(N)c(C#N)c(N)c1C2Sc1ccc(O)cc1 (stereo not given) ?
output: No

input: Short answer needed: outcome of this test for O=c1c2ccccc2n(CC(O)CN2CCCC2)c2c(Br)cccc12 (stereo not given) ?
output: No

input: Short answer needed: outcome of this test for COc1ccc2nc3c(n2c1)C(=O)C(=O)c1ccccc1-3 ?
output: Yes

input: Short answer needed: outcome of this test for COC(=O)c1cncc(C(=O)Nc2ccc(-n3cnc4ccccc43)cc2)c1 ?
output: No

input: Short answer needed: outcome of this test for O=C1NCc2ccc3c(-c4cccc(Cl)c4)c[nH]c3c21 ?
output: No

input: Short answer needed: outcome of this test for O=C(O)C(C(=O)O)c1cccc2ccccc12 ?
output: No

input: Short answer needed: outcome of this test for O=C(Nc1nc2ccc(C(F)(F)F)cc2s1)c1cc(Cl)ccc1O ?
output: Yes

input: Short answer needed: outcome of this test for Nc1ccc(C2=NN(C(=O)c3cc(-c4ccc(Cl)cc4)nc4ccccc34)C(c3ccccc3)C2)cc1 (stereo not given) ?
output: No

input: Short answer needed: outcome of this test for COc1ccc(-c2nnc(N3CCN(C(=O)CN4CCN(c5ccccc5)CC4)CC3)nc2-c2ccc(OC)cc2)cc1 ?
output: No

input: Short answer needed: outcome of this test for CCCCC1=c2c([nH]c3ccc(OC)cc23)=NC2C=CC=NC12 (stereo not given) ?
output: No

input: Short answer needed: outcome of this test for O=Cc1[nH]c(Sc2ccccc2)c2ccccc12 ?
output: No

input: Short answer needed: outcome of this test for C=C1C(=O)O[C@H]2[C@H]1CC/C(COC(=O)c1cccnc1N)=C\CC[C@@]1(C)O[C@@H]21 ?
output: No

input: Short answer needed: outcome of this test for CCCCn1c(=O)c(/C=C/C(=O)/C=C/c2cc3ccccc3n(CCCC)c2=O)cc2ccccc21 ?
output: Yes

input: Short answer needed: outcome of this test for COc1cc(NC(=O)Nc2cnc(Nc3ccc(N4CCOCC4)cc3)nc2Oc2ccc(F)cc2)cc(OC)c1 ?
output: No

input: Short answer needed: outcome of this test for COc1ccc(-c2cc(-c3nnc(SCC(=O)Nc4ccc(/C(C)=N\O)cc4)n3-c3ccccc3)c3cc(OC)ccc3n2)cc1 ?
output: No

input: Short answer needed: outcome of this test for Cc1nccc2c3ccc(OCc4cn(-c5ccc(Br)cc5)nn4)cc3n(CC(C)C)c12 ?
output: No

input: Short answer needed: outcome of this test for COc1cc(-c2csc(NC(=O)Nc3ccc(Cl)cc3)n2)cc(OC)c1OC ?
output: No

input: Short answer needed: outcome of this test for COc1ccc(Nc2cc(NC(=O)CNc3cc(OC)c(Cl)c(OC)c3Cl)ncn2)cc1 ?
output: No

input: Short answer needed: outcome of this test for Nn1c(SCC(=O)Nc2ccc(Cl)cc2)nnc1-c1cc(F)c(Cl)cc1Cl ?
output: No

input: Short answer needed: outcome of this test for COc1ccc2nc(-c3ccc(Cl)cc3)cc(-c3nnc(SCC(=O)Nc4ccc(/C(C)=N\O)cc4)o3)c2c1 ?
output: No

###

Tested on: NCI-H322M lung
Experimental protocol: NCI-60 one-dose screen, 48 h (100 = growth as untreated, 0 = no growth, -100 = all killed)
Condition details: 10 µM unless noted
Compounds without any hit were thinned out: in the full panel of roughly 83,000, 20% have a hit.
Categorize each record by its growth using category 1: < 50%; category 2: ≥ 50% and < 90%; category 3: ≥ 90%

COc1ccc(NC(=O)c2ccc(Nc3ncnc4[nH]c(C)c(C)c34)cc2)cc1 ... category 3
CC(=O)Oc1ccc(O)cc1 ... category 3
COc1cc(C(=O)Nc2cc(O)c(C/C=C(\C)CCC=C(C)C)c(O)c2)cc2c1O[C@]1(C)CC[C@@H](O)C(C)(C)[C@H]1C2 ... category 1
CC1=C/C(=N\N=C2/C=C(C)CC(C)(C)C2)CC(C)(C)C1 ... category 3
COc1ccc(C(C)c2cc(OC)c(OC)c(OC)c2)cc1 (stereo unspecified) ... category 1

Now look at this entry.
input: # bin label for CCCCCCN1C(=O)CN=C1Nc1ccc2cc3ccc(NC4=NCC(=O)N4CCCCCC)cc3nc2c1
output: category 2

###

System: 786-0 renal
Experimental protocol: NCI-60 one-dose screen, 48 h (100 = growth as untreated, 0 = no growth, -100 = all killed)
Condition details: 10 µM unless noted
The panel holds about 83,000 compounds, 20% with a hit somewhere; the sample as a whole holds those more often.
Quantity name: growth (%)
Please state the figure in %; there is no need to write the unit.

# count of solved cases: 4
Cc1c(Cl)cccc1NC(=O)c1sc2nc3c(cc2c1N)CCCCC3 ... 32.1
C=C1C(=O)O[C@H]2[C@H]1CC/C(COC(=O)/C=C/c1cccnc1)=C\CC[C@@]1(C)O[C@@H]21 ... 2.95
c1ccc2nc(N3CCOCC3)c(N3CCCCC3)nc2c1 ... 102
Cc1cc(O)cc(O)c1N=NC1=NCCS1 ... 96.6

Let's switch to this compound now.
Tested on 786-0 renal: Cc1c(C(=O)Nc2nc3ccccc3[nH]2)cnn1-c1ccccn1 . Observed growth: 107
